Assay: NCI Yeast Anticancer Drug Screen. Data for the sgs1 mgt1 strain (AID 161)
Conditions: S. cerevisiae sgs1 mgt1 strain, at 5.0 µM (retest, dose inferred, filed as 0.5)
This is part of a sample that, as a whole, favours compounds with a hit. Of some 79,000 tested, about 15% had one in any assay. Calls of active or inactive are those of the source. Rule as the data show it: active = growth inhibition above about 70%; inactive = the rest.
Would you mind answering with one of these outcomes? active, inactive

Completed entries (count: 5):
[
  {
    "Compound": "Oc1c(Br)cc(Br)cc1C=Nc1ccc(Br)cc1",
    "Qualitative Label": "active"
  },
  {
    "Compound": "COc1cc(/C=C/C(=O)c2ccc(O)c(OC)c2)ccc1O",
    "Qualitative Label": "inactive"
  },
  {
    "Compound": "C/C(=N/NC(=O)Nc1ccc(N=Nc2ccccc2)cc1)c1cccnc1",
    "Qualitative Label": "inactive"
  },
  {
    "Compound": "Cc1nn(C(=S)S)c(C)c1N=Nc1cccc(F)c1",
    "Qualitative Label": "inactive"
  },
  {
    "Compound": "CCN(CC)CCOc1cccc2c1C(=O)c1c(O)cccc1C2=O",
    "Qualitative Label": "inactive"
  }
]

Can you look up the reported call for CC(=O)OCc1ccc2c(c1)C(O)NC(=O)O2 (configuration not stated) for me?
inactive

Please indicate how the test categorized Cn1c(=O)ccc2cc(C(=O)c3ccccc3)ccc21 .
inactive

----------
Assay: NCI Yeast Anticancer Drug Screen. Data for the sgs1 mgt1 strain (AID 161)
Settings: S. cerevisiae sgs1 mgt1 strain, at 50.0 µM (retest, dose inferred, filed as 5.0)
Compounds without any hit were thinned out: in the full panel of roughly 79,000, 15% have a hit. The source made the active and inactive calls. Cut-off read from the data, not from the text of the source: active = growth inhibition above about 70%; inactive = the rest.
Please reply with one of these outcomes: active, inactive

These solved cases illustrate the format of a correct answer.
[
  {
    "Compound": "CN(C)c1ccc(/C=N/c2nc(-c3ccccc3)cs2)cc1",
    "Qualitative Label": "active"
  },
  {
    "Compound": "C/C(=N/NC(=O)C[n+]1ccccc1)C(CN(CC(C)C)CC(C)C)C(=O)Nc1ccc(C)cc1C (configuration not stated)",
    "Qualitative Label": "inactive"
  },
  {
    "Compound": "NCCC(N)P(=O)(O)O (configuration not stated)",
    "Qualitative Label": "inactive"
  },
  {
    "Compound": "O=S(=O)(Nc1ccccc1C(F)(F)F)c1ccc(F)cc1",
    "Qualitative Label": "inactive"
  },
  {
    "Compound": "CCC[CH2][Sn]([CH2]CCC)([O]N(C)C(=O)c1ccc(Br)cc1)[O]N(C)C(=O)c1ccc(Br)cc1",
    "Qualitative Label": "active"
  }
]

Hello, I am checking results. What call was entered for Nc1ccc(C(=O)/C=C/c2ccccc2O)cc1 ?
inactive

Lab log entry: COC1(OC)C2(Cl)C(Cl)=C(Cl)C1(Cl)C1C2C2CC1(C(=O)O)c1ccccc12 (configuration not stated) — outcome as called in the assay?
inactive

For O=S1OCCS1 (configuration not stated) , what call appears in the results of this test?
active

State the result this test recorded for O=c1c2[nH]c3cccc(Cl)c3c2cnn1-c1ccc(F)cc1 .
inactive

Just curious, what result did FC1(F)C2=C(SC3=C(S2)C(F)(F)C3(F)F)C1(F)F get here?
active

Per the records of this test, what outcome belongs to [O-][N+]1=C2CCC/C(=N/O)C2(O)C2CCCCC21N1CCOCC1 (configuration not stated) ?
inactive

Just for reference, PubChem BioAssay (NCI) is where these values come from.
